For each record, write down the corresponding inhibition at 50 µM.
tested.on: dephosphorylated IRE1α (547–977) (Homo sapiens)
Construct: Human IRE1α kinase and RNase domain (residues 547–977) was subcloned into pLIB plasmid; His tag (with TEV cleavage site) (N, cleaved yes); made in house; host or cells: Sf9 insect cells, baculovirus (Bac-to-Bac)
assay.text: FRET-based IRE1α RNase activity assay, dephosphorylated IRE1α
Assay type: biochemical
condition.summary: FRET assay at 50 μM; mean (± SEM); read-out: IRE1α inhibition%

See these solved cases before continuing.
• CCOC(=O)Cc1c(C)n(C(=O)c2ccc(Cl)cc2)c2ccc(OC)cc12 [cms05] = < 30%
• COc1ccc2c(c1)c(Cc1ccccc1)c(C)n2C(=O)c1ccc(Cl)cc1 [cms09] = < 30%
• COc1ccc2c(c1)c(CC(=O)OCC(=O)O)c(C)n2C(=O)c1ccc(Cl)cc1 [cms03] = < 30%
• COc1ccc2c(c1)c(CC(=O)OC(C)C)c(C)n2C(=O)c1ccc(Cl)cc1 [cms07] = < 30%

# context switch: different compound, same inhibition at 50 µM
Request: Quick one: inhibition at 50 µM for COc1ccc2c(c1)c(CCCC(=O)O)c(C)n2C(=O)c1ccc(Cl)cc1 [cms02] ?
Result: 40.3%

* * *

tested.on: dephosphorylated IRE1α (547–977) (Homo sapiens)
Construct: Human IRE1α kinase and RNase domain (residues 547–977) was subcloned into pLIB plasmid; His tag (with TEV cleavage site) (N, cleaved yes); made in house; host or cells: Sf9 insect cells, baculovirus (Bac-to-Bac)
assay.text: FRET-based IRE1α RNase activity assay, dephosphorylated IRE1α
Type: biochemical
condition.summary: FRET assay, RNase activity; mean (± SEM); read-out: IRE1α IC50
measured.endpoint: IC50 (µM)
Answers are plain numbers, in µM.

Some entries whose results are on file:
* COc1ccc2c(c1)c(CCC(=O)O)c(C)n2C(=O)c1cccc(C(F)(F)F)c1 | 0.1
* Cc1ccc2c(NS(=O)(=O)c3ccccc3Cl)cccc2c1Oc1ncccc1-c1ccnc(N[C@H]2CCCNC2)n1 | 0.021
* COc1ccc2c(c1)c(CCC(=O)O)c(C)n2C(=O)c1ccc(-c2ccccc2)cc1 | 0.86

Items follow; give IC50 for each.
1. COc1ccc2c(c1)c(CCC(=O)O)c(C)n2C(=O)c1ccc(F)cc1
2. COc1ncc(-c2ccc3c(c2)c(CCC(=O)O)c(C)n3C(=O)c2ccccc2)c(OC)n1
3. COc1ccc2c(c1)c(CCC(=O)O)c(C)n2C(=O)c1ccc(N(C)C)cc1
4. Cc1c(CCC(=O)O)c2cc(-c3ccncc3)ccc2n1C(=O)c1ccccc1
5. CC(=O)c1ccc(-c2ccc3c(c2)c(CCC(=O)O)c(C)n3C(=O)c2ccccc2)s1

Result:
[0.14, 14.1, 0.32, 2.16, 4.73]

Provide IC50 values for the following items, in order.
1. COc1ccc2c(c1)c(CCC(=O)O)c(C)n2C(=O)N1CCCCC1
2. Cc1c(CCC(=O)O)c2cc(C(C)C)ccc2n1C(=O)c1ccccc1
3. COc1ccc(C(=O)n2c(C)c(CCC(=O)O)c3cc(OC)ccc32)cc1
4. Cc1c(CCC(=O)O)c2cc(OC(F)(F)F)ccc2n1C(=O)c1ccccc1
5. Cc1c(CCC(=O)O)c2cc(-c3cccc(N)c3)ccc2n1C(=O)c1ccccc1
6. COc1ccc2c(c1)c(CCC(=O)O)c(C)n2C(=O)c1ccc(Br)cc1
7. Cc1c(CCC(=O)O)c2cc(-c3ccc(C(F)(F)F)cc3)ccc2n1C(=O)c1ccccc1

Result:
1: 69.6; 2: 0.24; 3: 0.17; 4: 0.57; 5: 1.21; 6: 1.46; 7: 13.4

For each of the items listed, what is its IC50?
1. Cc1noc(C)c1-c1ccc2c(c1)c(CCC(=O)O)c(C)n2C(=O)c1ccccc1
2. Cc1c(CCC(=O)O)c2ccccc2n1C(=O)c1ccccc1

Result:
1: 1.61; 2: 0.34

* * *

tested.on: phosphorylated IRE1α (Homo sapiens)
Construct: Human IRE1α kinase and RNase domain (residues 547–977) was subcloned into pLIB plasmid; His tag (with TEV cleavage site) (N, cleaved yes)
assay.text: Microscale thermophoresis (MST), p-IRE1α
measured.endpoint: Kd (nM)
One number for each entry, in nM.

Request: For the compound "Cc1c(CCC(=O)O)c2cc(Br)ccc2n1C(=O)c1ccccc1" , what Kd is on record?
Result: 152

* * *

tested.on: dephosphorylated IRE1α (547–977) (Homo sapiens, UniProt O75460)
Construct: Human IRE1α kinase and RNase domain (residues 547–977) was subcloned into pLIB plasmid; His tag (with TEV cleavage site) (N, cleaved yes); made in house; host or cells: Sf9 insect cells, baculovirus (Bac-to-Bac)
Sequence (O75460 547-977): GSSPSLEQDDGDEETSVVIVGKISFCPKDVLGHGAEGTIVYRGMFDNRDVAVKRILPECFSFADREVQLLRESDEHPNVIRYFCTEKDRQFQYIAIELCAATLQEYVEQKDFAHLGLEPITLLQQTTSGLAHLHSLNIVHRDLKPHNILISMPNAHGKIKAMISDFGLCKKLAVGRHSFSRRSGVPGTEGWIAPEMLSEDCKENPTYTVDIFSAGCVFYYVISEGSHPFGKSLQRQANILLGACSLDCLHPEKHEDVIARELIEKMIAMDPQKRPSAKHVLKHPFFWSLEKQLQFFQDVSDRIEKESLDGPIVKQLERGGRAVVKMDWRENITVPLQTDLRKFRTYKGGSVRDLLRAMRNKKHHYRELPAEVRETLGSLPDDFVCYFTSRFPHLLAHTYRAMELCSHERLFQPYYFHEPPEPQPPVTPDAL
assay.text: FRET-based IRE1α RNase activity assay, dephosphorylated IRE1α
Assay type: biochemical
condition.summary: FRET assay, RNase activity; mean (± SEM); read-out: IRE1α IC50
measured.endpoint: log10 of IC50 (log10 of the value in µM)
Reminder: these figures are log10 of reported IC50, in µM before transformation.

Recorded log10 of IC50, per entry:
- COc1ccc2c(c1)c(CCC(=O)O)c(C)n2C(=O)c1ccc(Cl)cc1: -0.52
- Cc1c(CCC(=O)O)c2cc(-c3ccc(O)cc3)ccc2n1C(=O)c1ccccc1: 0.87
- COc1ccc2c(c1)c(CCC(=O)O)c(C)n2C(=O)c1cccs1: -1.00
- Cc1c(CCC(=O)O)c2cc(-c3ccc(C(N)=O)cc3)ccc2n1C(=O)c1ccccc1: 1.08
- Cc1c(CCC(=O)O)c2cc(-c3cn[nH]c3)ccc2n1C(=O)c1ccccc1: -0.15
- COc1ccc2c(c1)c(CCC(=O)O)c(C)n2C(=O)c1ccncc1: -0.74
- COc1ccc2c(c1)c(CCC(=O)O)c(C)n2C(=O)C1CC1: -0.08
- Cc1c(CCC(=O)O)c2cc(-c3cccc(C(=O)O)c3)ccc2n1C(=O)c1ccccc1: 0.00
- Cc1c(CCC(=O)O)c2cc(-c3cccs3)ccc2n1C(=O)c1ccccc1: 0.47

Okay, now this compound:
Request: Entry "Cc1c(CCC(=O)O)c2cc(-c3ccoc3)ccc2n1C(=O)c1ccccc1" : reported log10 of IC50 = ?
Result: 0.10

* * *

Assign pIC50 to each entry below.
tested.on: dephosphorylated IRE1α (547–977) (Homo sapiens, UniProt O75460)
Construct: Human IRE1α kinase and RNase domain (residues 547–977) was subcloned into pLIB plasmid; His tag (with TEV cleavage site) (N, cleaved yes); made in house; host or cells: Sf9 insect cells, baculovirus (Bac-to-Bac)
assay.text: FRET-based IRE1α RNase activity assay, dephosphorylated IRE1α
Assay type: biochemical
condition.summary: FRET assay, RNase activity; mean (± SEM); read-out: IRE1α IC50
pIC50: −log10 of the molar value.

Some entries whose results are on file:
* COc1ccc2[nH]c(C)c(CCC(=O)O)c2c1 [IA72] | < 4.70
* COc1ccc2c(c1)c(CCC(=O)O)c(C)n2C(=O)N(C)C [IA76] | < 4.70
* CCOC(=O)CCc1c(C)n(C(=O)c2ccccc2)c2ccc(Br)cc12 [IAPD1] | < 4.30

Now turn to the next compound.
Request: Could you share which pIC50 value was measured for COc1ccc2c(c1)c(CCC(=O)O)c(C)n2C(=O)c1ccc2ccccc2c1 [IA34] ?
Result: < 4.70

Each recorded value in this set is attributed to paper PMC12475274.
